Taken from paper PMC7605558.

Target: HCoV-OC43 M^pro (Human coronavirus OC43)
Sequence (P0C6X6 3247-3549 limits assumed): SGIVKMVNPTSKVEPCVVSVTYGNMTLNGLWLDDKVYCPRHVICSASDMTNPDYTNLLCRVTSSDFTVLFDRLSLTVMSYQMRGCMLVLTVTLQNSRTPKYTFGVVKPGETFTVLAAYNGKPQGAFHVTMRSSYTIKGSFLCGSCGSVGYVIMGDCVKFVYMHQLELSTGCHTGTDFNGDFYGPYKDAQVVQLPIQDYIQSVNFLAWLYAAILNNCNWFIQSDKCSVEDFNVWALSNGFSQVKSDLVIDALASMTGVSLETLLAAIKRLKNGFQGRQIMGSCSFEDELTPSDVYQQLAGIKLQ
metric: Ki (µM)
Give bare numbers, in µM.

input: Returns the measured Ki for the input compound. Input: CC(C)(C)NC(=O)N[C@H](C(=O)N1C[C@H]2[C@@H]([C@H]1C(=O)NC(CC1CCC1)C(=O)C(N)=O)C2(C)C)C(C)(C)C (stereo partly shown)
output: 2.29

----------
Target: MERS-CoV M^pro (Middle East respiratory syndrome-related coronavirus)
Sequence (K9N7C7 3248-3553 limits assumed): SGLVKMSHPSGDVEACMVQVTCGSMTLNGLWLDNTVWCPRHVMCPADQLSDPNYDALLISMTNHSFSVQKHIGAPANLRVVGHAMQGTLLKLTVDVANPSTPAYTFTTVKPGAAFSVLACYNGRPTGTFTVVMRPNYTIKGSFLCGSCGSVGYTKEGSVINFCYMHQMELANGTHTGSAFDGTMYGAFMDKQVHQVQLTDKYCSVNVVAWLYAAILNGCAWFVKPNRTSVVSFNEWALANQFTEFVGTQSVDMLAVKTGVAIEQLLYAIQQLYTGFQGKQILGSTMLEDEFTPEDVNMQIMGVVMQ
metric: Ki (nM)
Numbers only, in nM.

input: Returns the measured Ki for the input molecule. Input: CC(C)(C)NC(=O)N[C@H](C(=O)N1C[C@H]2[C@@H]([C@H]1C(=O)NC(CC1CCC1)C(=O)C(N)=O)C2(C)C)C(C)(C)C (stereo partly shown) [boceprevir]
output: 1650
